- SUBJECT OF TEST: 72 kDa type IV collagenase (Homo sapiens)
- ASSAY EXPLANATION: Inhibition of MMP-2 activity in human HT1080 cells at 10 uM by gelatin zymography
- Type: cell-based
- EXPERIMENTAL CONDITIONS: HT-1080
Active and inactive are the calls of the source. The rule behind the calls is not given here.
ENDPOINT NAME: inhibition

O=c1c(-c2c(/C=C/c3ccccc3)oc3ccccc3c2=O)c(/C=C/c2ccccc2)oc2ccccc12 = inactive
COc1ccc(-c2oc3cc(O)cc(O)c3c(=O)c2-c2c(-c3ccc(OC)c(OC)c3)oc3cc(O)cc(O)c3c2=O)cc1OC = Active
COc1ccc(-c2oc3cc(O)cc(O)c3c(=O)c2-c2c(-c3ccc(OC)cc3)oc3cc(O)cc(O)c3c2=O)cc1 = 90%
O=c1c(-c2c(-c3ccccc3)oc3cc(O)ccc3c2=O)c(-c2ccccc2)oc2cc(O)ccc12 = inactive

Read the next record carefully.
Given `O=c1c(-c2c(-c3ccco3)oc3ccccc3c2=O)c(-c2ccco2)oc2ccccc12` , state its recorded inhibition.
Active
